# assay_target: Neuropeptide Y receptor type 1 (Homo sapiens, UniProt P25929)
# Sequence (P25929 whole entry): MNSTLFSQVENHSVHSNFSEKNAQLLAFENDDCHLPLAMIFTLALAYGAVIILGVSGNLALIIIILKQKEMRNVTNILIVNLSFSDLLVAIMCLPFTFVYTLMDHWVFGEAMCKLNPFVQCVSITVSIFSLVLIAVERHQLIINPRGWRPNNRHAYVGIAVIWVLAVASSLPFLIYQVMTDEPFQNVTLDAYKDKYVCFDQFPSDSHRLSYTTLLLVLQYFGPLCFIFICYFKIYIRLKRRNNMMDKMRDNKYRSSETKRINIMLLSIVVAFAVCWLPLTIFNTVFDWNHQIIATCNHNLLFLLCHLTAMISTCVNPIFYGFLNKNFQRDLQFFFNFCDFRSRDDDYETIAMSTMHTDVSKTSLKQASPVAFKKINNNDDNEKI
# measurement_description: Ability to reverse Neuropeptide Y receptor type 1-induced inhibition of forskolin-induced inhibition of forskolin-stimulated cAMP
# Assay type: functional
attribute_measured: Ki (nM)
Please give a number only; it is taken to be in nM.

Determine its reported Ki: O=C(CN1CCC(N2CCCCC2)CC1)c1c(COc2ccc(Cl)cc2)n(CCC[C@@H]2CCCNC2)c2ccccc12
1.8
